Provide the recorded Pre-emergence action against PHBPU for the entries that follow.
Tested on: PHBPU
experiment.notes: Pre-emergence action against PHBPU
Format: in vivo, Pharbitis purpurea
condition: Dosage 320 g/ha, pre-emergence
// units = %; emit number, no label

Incoming: # return recorded Pre-emergence action against PHBPU for input CCC(=O)c1c(C(F)(F)F)ccc(C(=O)Nc2nnnn2CC)c1C [2-15]
Outgoing: 80

Incoming: # return recorded Pre-emergence action against PHBPU for input CCn1nnnc1NC(=O)c1ccc(C(F)(F)F)c(C(=O)C2CC2)c1SC [2-60]
Outgoing: 100

Incoming: # return recorded Pre-emergence action against PHBPU for input CCCn1nnnc1NC(=O)c1ccc(C(F)(F)F)c(C(C)=O)c1Cl [3-137]
Outgoing: 100

* * *

Test system: AVEFA
experiment.notes: Post-emergence action against AVEFA
Format: in vivo, Avena fatua
condition: Avena fatua, 504 h; post-emergence, dosage 80 g/ha, visual assessment about 3 weeks after treatment vs untreated controls; read-out: Post-emergence action against AVEFA (herbicidal action in percent)
Provide the recorded pest or weed control at 80 g/ha for the entries that follow.
// units = %; emit number, no label

Incoming: # return recorded pest or weed control at 80 g/ha for input CC(=O)c1c(Cl)ccc(C(=O)Nc2nnnn2C)c1Cl
Outgoing: 90

Incoming: # return recorded pest or weed control at 80 g/ha for input Cn1nnnc1NC(=O)c1ccc(C(F)F)c(C(=O)C2CC2)c1Cl
Outgoing: 100

Incoming: # return recorded pest or weed control at 80 g/ha for input Cn1nnnc1NC(=O)c1ccc(C(F)(F)F)c(C(=O)C(F)F)c1Cl
Outgoing: 90

Incoming: # return recorded pest or weed control at 80 g/ha for input Cc1c(C(=O)Nc2nnnn2C)ccc(C(F)(F)F)c1C(=O)C1CC1
Outgoing: 100

Incoming: # return recorded pest or weed control at 80 g/ha for input CC(=O)c1c(C(F)F)ccc(C(=O)Nc2nnnn2C)c1Cl
Outgoing: 80

Incoming: # return recorded pest or weed control at 80 g/ha for input CC(=O)c1c(C(F)(F)F)ccc(C(=O)Nc2nnnn2C)c1Br
Outgoing: 80

Incoming: # return recorded pest or weed control at 80 g/ha for input CC(=O)c1c(S(C)(=O)=O)ccc(C(=O)Nc2nnnn2C)c1Cl
Outgoing: 80

* * *

Provide the recorded Post-emergence action against VIOTR for the entries that follow.
System: VIOTR
experiment.notes: Post-emergence action against VIOTR
Assay type: in vivo, Viola tricolor
condition: post-emergence, dosage 80 g/ha

Incoming: # return recorded Post-emergence action against VIOTR for input CCCn1nnnc1NC(=O)c1ccc(C(F)(F)F)c(C(=O)CC)c1C
Outgoing: 90

Incoming: # return recorded Post-emergence action against VIOTR for input CCCn1nnnc1NC(=O)c1ccc(C(F)(F)F)c(C(=O)COC)c1Cl
Outgoing: 80

Incoming: # return recorded Post-emergence action against VIOTR for input CCCn1nnnc1NC(=O)c1ccc(C)c(C(=O)C2CC2)c1Cl
Outgoing: 80

Incoming: # return recorded Post-emergence action against VIOTR for input CCn1nnnc1NC(=O)c1ccc(C(F)(F)F)c(C(=O)CCl)c1C
Outgoing: 100

Incoming: # return recorded Post-emergence action against VIOTR for input CCn1nnnc1NC(=O)c1ccc(S(C)(=O)=O)c(C(C)=O)c1C
Outgoing: 100

Incoming: # return recorded Post-emergence action against VIOTR for input CCn1nnnc1NC(=O)c1ccc(C(F)(F)F)c(C(=O)C2CC2)c1SC
Outgoing: 100

Incoming: # return recorded Post-emergence action against VIOTR for input CCC(=O)c1c(C)ccc(C(=O)Nc2nnnn2CC)c1Cl
Outgoing: 90
